Biological target: human p38 kinase alpha (Homo sapiens, UniProt Q16539)
Construct: GST (N, cleaved yes); made in house; host or cells: E. coli DH10B
Sequence (Q16539 whole entry): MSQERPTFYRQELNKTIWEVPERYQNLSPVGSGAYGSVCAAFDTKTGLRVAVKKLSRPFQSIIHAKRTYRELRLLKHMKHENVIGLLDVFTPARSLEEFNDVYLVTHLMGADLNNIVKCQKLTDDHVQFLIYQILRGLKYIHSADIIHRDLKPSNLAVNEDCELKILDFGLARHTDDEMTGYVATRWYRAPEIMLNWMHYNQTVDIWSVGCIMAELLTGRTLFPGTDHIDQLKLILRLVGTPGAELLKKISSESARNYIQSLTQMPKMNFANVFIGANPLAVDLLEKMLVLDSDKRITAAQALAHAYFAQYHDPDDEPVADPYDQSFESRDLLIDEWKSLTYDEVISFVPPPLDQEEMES
Assay: p38 kinase in vitro assay, phosphorylation of biotinylated PHAS-I with 32P-ATP
Type: biochemical
Details: @ 10.0 uM
metric name: P38 alpha kinase IC50, uM or % inhib @ conc. (uM): % inhib (% @)
Kindly answer with a numeric value in % @, unit omitted.

Worked cases, answers included:
Cc1c(-c2ccncc2)c(-c2ccc(F)cc2)nn1CC(=O)Nc1ccccc1Oc1ccc(Cl)cc1    86.0
Cc1c(-c2ccncc2)c(-c2ccc(F)cc2)nn1CC(=O)Nc1ccccc1C(=O)OC(C)C    88.0
Cc1c(-c2ccncc2)c(-c2ccc(F)cc2)nn1CC(=O)Nc1ccccc1Sc1ccc([N+](=O)[O-])cn1    90.0
Cc1c(-c2ccncc2)c(-c2ccc(F)cc2)nn1CC(=O)Nc1ccc(CCC(=O)c2cccnc2)cc1    94.0
Cc1c(-c2ccncc2)c(-c2ccc(F)cc2)nn1CC(=O)N(C)CCn1ccnc1    43.0
Cc1c(-c2ccncc2)c(-c2ccc(F)cc2)nn1CC(=O)N(CC1CC1)C(C)Cc1ccc(Cl)cc1 (stereo not shown)    83.0

We now examine a further compound.
Q: Which P38 alpha kinase IC50, uM or % inhib @ conc. (uM): % inhib is reported with human p38 kinase alpha (Homo sapiens, UniProt Q16539) for this entry: Cc1c(-c2ccncc2)c(-c2ccc(F)cc2)nn1CC(=O)N(C)CCN1CCOCC1 ?
Result: 32.0

* * *

Biological target: human p38 kinase alpha (Homo sapiens)
Construct: GST (N, cleaved yes); made in house; host or cells: E. coli DH10B
Test: p38 kinase in vitro assay, phosphorylation of biotinylated PHAS-I with 32P-ATP
Assay type: biochemical
Conditions: in vitro P38-alpha kinase; read-out: P38 alpha kinase IC50
metric name: pIC50
Worth noting: pIC50 values are minus log10 of concentrations stated in mol/L.

O=C(NCCCc1[nH]nc(-c2ccc(F)cc2)c1-c1ccncc1)c1cccc(F)c1    7.37
O=S(=O)(c1cccc(F)c1)N1CCC(c2[nH]nc(-c3ccc(F)cc3)c2-c2ccncc2)CC1    5.93
O=S(=O)(c1ccc(Cl)cc1)N1CCC(c2[nH]nc(-c3ccc(F)cc3)c2-c2ccncc2)CC1    6.07
O=S(=O)(c1ccccc1)c1ccc(S(=O)(=O)N2CCC(c3[nH]nc(-c4ccc(F)cc4)c3-c3ccncc3)CC2)s1    5.71

For the next question, use this molecule.
Q: Request: pIC50, test system human p38 kinase alpha (Homo sapiens), entry CC(=O)Nc1ccc(S(=O)(=O)NCCCc2[nH]nc(-c3ccc(F)cc3)c2-c2ccncc2)cc1
Result: 7.00

* * *

Here the recorded P38 alpha kinase % inhib @ conc. (uM) is given for each entry.
Target: human p38 kinase alpha (Homo sapiens)
Construct: GST (N, cleaved yes); made in house; host or cells: E. coli DH10B
Experiment: p38 kinase in vitro assay, phosphorylation of biotinylated PHAS-I with 32P-ATP
Assay type: biochemical
Settings: @ 1.0 uM
Just the number in % @, nothing appended.

CN(C)C(=O)NCCc1[nH]nc(-c2ccc(F)cc2)c1-c1ccncc1    75.0

Q: Value lookup for P38 alpha kinase % inhib @ conc. (uM); key = COc1ccc(CC(=O)NCCc2[nH]nc(-c3ccc(F)cc3)c2-c2ccncc2)cc1OC
Result: 61.0

Q: Given C=CCNC(=O)NCCc1[nH]nc(-c2ccc(F)cc2)c1-c1ccncc1 , state its recorded P38 alpha kinase % inhib @ conc. (uM).
Result: 72.0

Q: For the molecule O=C(NCCc1[nH]nc(-c2ccc(F)cc2)c1-c1ccncc1)c1ccccc1 , what P38 alpha kinase % inhib @ conc. (uM) is on record?
Result: 74.0
